src = patent US11452717B2

- experimentalSystem: NAMPT enzyme (Homo sapiens (Human), UniProt P43490)
- Sequence (P43490 whole entry, species assumed): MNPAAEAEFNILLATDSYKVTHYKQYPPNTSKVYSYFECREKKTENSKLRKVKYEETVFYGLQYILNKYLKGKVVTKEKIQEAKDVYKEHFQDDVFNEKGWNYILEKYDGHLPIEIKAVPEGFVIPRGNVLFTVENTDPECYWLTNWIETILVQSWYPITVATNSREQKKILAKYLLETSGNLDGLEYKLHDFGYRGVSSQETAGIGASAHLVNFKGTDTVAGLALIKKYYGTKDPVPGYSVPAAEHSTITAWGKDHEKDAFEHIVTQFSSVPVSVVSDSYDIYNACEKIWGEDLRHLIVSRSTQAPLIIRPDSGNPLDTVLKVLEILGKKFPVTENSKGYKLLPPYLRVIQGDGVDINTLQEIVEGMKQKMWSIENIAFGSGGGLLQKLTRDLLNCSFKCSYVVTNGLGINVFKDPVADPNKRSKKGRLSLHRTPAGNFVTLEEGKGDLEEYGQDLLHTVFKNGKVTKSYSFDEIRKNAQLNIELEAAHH
- protocolText: Enzyme Assay and NMN Detection (NAMPT reaction, fluorescence detection of NMN)
- Format: biochemical
- statedConditions: Table B-4; NAMPT activation, NMN formation
Each entry below carries its recorded EC50.

The examples below pair each entry with its known result.
                                 testsmiles                        experimentalsystem          measured
0  O=C(NCc1cn[nH]c1)Nc1ccc(-c2cccc3[nH]cnc23)cc1  NAMPT enzyme (Homo sapiens (Human), UniProt P43490)        > 20000 nM
1  COc1ccc(-c2ccccc2S(=O)(=O)c2ccc(NC(=O)NCc3cn[nH]c3)cc2)cn1  NAMPT enzyme (Homo sapiens (Human), UniProt P43490)  5000 to 20000 nM
2  CC(C)N1CCC(S(=O)(=O)c2ccc(NC(=O)NCc3cn[nH]c3)cc2)CC1  NAMPT enzyme (Homo sapiens (Human), UniProt P43490)   2000 to 5000 nM
3  N#Cc1ccc(-c2ccccc2S(=O)(=O)c2ccc(NC(=O)NCc3cn[nH]c3)cc2)cc1  NAMPT enzyme (Homo sapiens (Human), UniProt P43490)  5000 to 20000 nM
4  O=C(NCc1cn[nH]c1)Nc1ccc(NS(=O)(=O)Cc2ccccc2Cl)cc1  NAMPT enzyme (Homo sapiens (Human), UniProt P43490)          < 100 nM
5  Cc1cccc(-c2csc(Nc3ccc(NC(=O)NCc4cn[nH]c4)cc3)n2)c1  NAMPT enzyme (Homo sapiens (Human), UniProt P43490)    100 to 2000 nM
6  Cn1cc(S(=O)(=O)c2ccc(NC(=O)NCc3cn[nH]c3)cc2)cn1  NAMPT enzyme (Homo sapiens (Human), UniProt P43490)    100 to 2000 nM
7  O=C(NCc1cn[nH]c1)Nc1ccc(S(=O)(=O)c2cccc(F)c2)cc1  NAMPT enzyme (Homo sapiens (Human), UniProt P43490)          < 100 nM
8  O=C(NCc1cn[nH]c1)Nc1ccc(S(=O)(=O)c2ccccc2-c2cccc(F)c2)cc1  NAMPT enzyme (Homo sapiens (Human), UniProt P43490)          < 100 nM

Proceed to the following item.
Reported EC50, molecule "Cc1ccc(S(=O)(=O)c2ccc(NC(=O)NCc3cn[nH]c3)cc2)cn1" : ____
100 to 2000 nM

---

- experimentalSystem: NAMPT enzyme (Homo sapiens (Human))
- protocolText: Enzyme Assay and NMN Detection (NAMPT reaction, fluorescence detection of NMN)
- Type: biochemical
- statedConditions: Table B-2; NAMPT activation, NMN formation
pEC50: −log10 of the molar value.
quantityName: pEC50

>>> df
                                   compound      measured
0  N#Cc1cccc(CNS(=O)(=O)c2ccc(NC(=O)NCc3ccncc3)cc2)c1  5.70 to 7.00
1  O=C(NCc1ccncc1)Nc1ccc(S(=O)(=O)NCCN2CCCC2)cc1  5.30 to 5.70
2  O=C(NCc1ccncc1)Nc1ccc(S(=O)(=O)NCc2cccc(C(F)(F)F)c2)cc1  5.70 to 7.00
3  CN(Cc1ccccc1C(F)(F)F)S(=O)(=O)c1ccc(NC(=O)NCc2ccncc2)cc1        > 7.00
4  Cc1ccccc1CNS(=O)(=O)c1ccc(NC(=O)NCc2ccncc2)cc1  5.70 to 7.00
5  Cc1cc(NS(=O)(=O)c2ccc(NC(=O)NCc3ccncc3)cc2)no1        < 4.70
6  O=C(NCc1ccncc1)Nc1ccc(C(=O)NC2CCOC2)cc1 (centres unmarked)  4.70 to 5.30
7     CCN(C)C(=O)c1ccc(NC(=O)NCc2ccncc2)cc1  4.70 to 5.30
8  O=C(NCc1ccncc1)Nc1ccc(C(=O)Nc2ccccc2)cc1  5.30 to 5.70
9  CN(c1ccc(NC(=O)NCc2ccncc2)cc1)S(=O)(=O)Cc1ccccc1        > 7.00

Reported pEC50, compound "O=C(NCc1ccncc1)Nc1ccc(C(=O)Nc2cccc(F)c2)cc1" : ____
5.70 to 7.00

---

- experimentalSystem: UniProt:P43490
- protocolText: Enzyme Assay and NMN Detection (NAMPT reaction, fluorescence detection of NMN)
- Type: biochemical
- statedConditions: Table B-5; NAMPT activation, NMN formation
quantityName: EC50

The examples below pair each entry with its known result.
                                 testsmiles  quantityname          measured
0  Cn1nc(-c2ccc(NC(=O)NCc3cnco3)cc2)c2cc(F)ccc21          EC50   2000 to 5000 nM
1  Cc1ccc2c(c1)c(-c1ccc(NC(=O)NCc3cnco3)cc1)nn2C          EC50  5000 to 20000 nM

Reported EC50, molecule "Cn1nc(-c2ccc(NC(=O)NCc3cnco3)cc2)c2ncccc21" : ____
2000 to 5000 nM

What do you get for "CN1CCC(S(=O)(=O)c2ccc(NC(=O)NCc3cnco3)cc2)CC1" ?
2000 to 5000 nM

What do you get for "O=C(NCc1cnco1)Nc1ccc(S(=O)(=O)c2ccncc2)cc1" ?
100 to 2000 nM

What do you get for "O=C(NCc1cnco1)Nc1ccc(S(=O)(=O)c2cccc(-c3ccccc3)c2)cc1" ?
100 to 2000 nM

What do you get for "O=C(NCc1cnco1)Nc1ccc(S(=O)(=O)c2cccc(C(F)(F)F)c2)cc1" ?
100 to 2000 nM

What do you get for "O=C(NCc1cnco1)Nc1ccc(S(=O)(=O)c2ccc(OC(F)(F)F)cc2)cc1" ?
100 to 2000 nM

What do you get for "COc1ccccc1S(=O)(=O)c1ccc(NC(=O)NCc2cnco2)cc1" ?
100 to 2000 nM

What do you get for "O=C(NCc1cnco1)Nc1ccc(S(=O)(=O)c2ccc(F)cc2F)cc1" ?
100 to 2000 nM

What do you get for "Cn1nc(-c2ccc(NC(=O)NCc3cnco3)cc2)c2cc(Cl)ccc21" ?
100 to 2000 nM

What do you get for "O=C(NCc1cnco1)Nc1ccc(S(=O)(=O)c2ccccn2)cc1" ?
100 to 2000 nM

What do you get for "O=C(NCc1cnco1)Nc1ccc(S(=O)(=O)c2ncccn2)cc1" ?
5000 to 20000 nM

What do you get for "O=C(NCc1cnco1)Nc1ccc(-c2ncc(Cc3ccccc3)s2)cc1" ?
5000 to 20000 nM

What do you get for "O=C(NCc1cnco1)Nc1ccc(Nc2nc3ccccc3s2)cc1" ?
5000 to 20000 nM

What do you get for "O=C(NCc1cnco1)Nc1ccc(S(=O)(=O)c2cn[nH]c2)cc1" ?
100 to 2000 nM

What do you get for "Cc1ccccc1S(=O)(=O)c1ccc(NC(=O)NCc2cnco2)cc1" ?
100 to 2000 nM

---

- experimentalSystem: NAMPT enzyme (Homo sapiens (Human), UniProt P43490)
- protocolText: Enzyme Assay and NMN Detection (NAMPT reaction, fluorescence detection of NMN)
- Assay type: biochemical
- statedConditions: Table B-6; NAMPT activation, NMN formation
pEC50: −log10 of the molar value.
quantityName: pEC50

Reported pEC50, molecule "O=C(NCc1ccncc1)Nc1ccc(NS(=O)(=O)Cc2ccccc2F)cc1" : ____
> 7.00

What do you get for "O=C(NCc1ccncc1)Nc1ccc(S(=O)(=O)c2ccccc2-c2ccc(Cl)cc2)cc1" ?
4.70 to 5.30

---

- experimentalSystem: NAMPT enzyme (Homo sapiens (Human), UniProt P43490)
- protocolText: Enzyme Assay and NMN Detection (NAMPT reaction, fluorescence detection of NMN)
- Assay type: biochemical
- statedConditions: Table B-5; NAMPT activation, NMN formation
quantityName: EC50

The examples below pair each entry with its known result.
>>> df
                                 testsmiles         measured
0  CC(C)n1cc(S(=O)(=O)c2ccc(NC(=O)NCc3cnco3)cc2)cn1   100 to 2000 nM
1  O=C(NCc1cnco1)Nc1ccc(S(=O)(=O)c2ccc(Cl)nc2)cc1  2000 to 5000 nM

Fill in the recorded EC50 for this compound, with NAMPT enzyme (Homo sapiens (Human), UniProt P43490) as test system: "O=C(NCc1cnco1)Nc1ccc(-c2nc3ccccc3s2)cc1"
5000 to 20000 nM

What do you get for "O=C(NCc1cnco1)Nc1ccc(S(=O)(=O)c2ccc(Cl)cn2)cc1" ?
2000 to 5000 nM

What do you get for "O=C(NCc1cnco1)Nc1ccc(S(=O)(=O)c2cccc(Cl)c2)cc1" ?
< 100 nM

What do you get for "O=C(NCc1cnco1)Nc1ccc(S(=O)(=O)c2ccccc2Cl)cc1" ?
100 to 2000 nM

What do you get for "COc1ccc(S(=O)(=O)c2ccc(NC(=O)NCc3cnco3)cc2)cn1" ?
100 to 2000 nM

What do you get for "Cn1nc(-c2ccc(NC(=O)NCc3cnco3)cc2)c2cnccc21" ?
5000 to 20000 nM

What do you get for "Cc1ccc(S(=O)(=O)c2ccc(NC(=O)NCc3cnco3)cc2)cc1" ?
2000 to 5000 nM

What do you get for "O=C(NCc1cnco1)Nc1ccc(S(=O)(=O)c2ccc(O)nc2)cc1" ?
100 to 2000 nM

What do you get for "O=C(NCc1cnco1)Nc1ccc(S(=O)(=O)c2cc(F)cc(F)c2)cc1" ?
100 to 2000 nM
